test system: wheat germ agglutinin (Triticum aestivum), Alexa647-labelled; assay: wheat germ agglutinin binders on compound microarrays, profiling panel, artefact control for SMM control-protein annotation, biochemical, small-molecule microarray, 635/667 nm fluorescence (AID 1140); settings: WGA-A647 binding, 635 nm fluorescence, higher = more signal;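 note: score merges 667 nm feature emission with signal to noise over triplicate slides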
MEASUREMENT_KIND: composite z-score

SMILES: CC(C)[C@H](NC(=O)OC(C)(C)C)[C@@H](O)CC(=O)OC(C)(C)C
MEASURED_NUMBER: -0.339

SMILES: O=C(NN=C1C[C@@H](O)[C@@H](O)[C@@H]2[C@@H]3C(=O)N(c4cccc(Oc5ccccc5)c4)C(=O)[C@@H]3CC[C@H]12)OCc1ccccc1
MEASURED_NUMBER: 0.557

SMILES: Cc1ccc(F)cc1S(=O)(=O)N[C@@H]1CCN(Cc2ccc(CC(C)C)cc2)C1
MEASURED_NUMBER: 0.0831
